The values you see were collected from patent US20250262201A1.

# Target of assay: human PAH with the R408W mutation (Homo sapiens, UniProt P00439, R408W)
# Construct: expressed in transfected cells
# Sequence (P00439 whole entry R408W): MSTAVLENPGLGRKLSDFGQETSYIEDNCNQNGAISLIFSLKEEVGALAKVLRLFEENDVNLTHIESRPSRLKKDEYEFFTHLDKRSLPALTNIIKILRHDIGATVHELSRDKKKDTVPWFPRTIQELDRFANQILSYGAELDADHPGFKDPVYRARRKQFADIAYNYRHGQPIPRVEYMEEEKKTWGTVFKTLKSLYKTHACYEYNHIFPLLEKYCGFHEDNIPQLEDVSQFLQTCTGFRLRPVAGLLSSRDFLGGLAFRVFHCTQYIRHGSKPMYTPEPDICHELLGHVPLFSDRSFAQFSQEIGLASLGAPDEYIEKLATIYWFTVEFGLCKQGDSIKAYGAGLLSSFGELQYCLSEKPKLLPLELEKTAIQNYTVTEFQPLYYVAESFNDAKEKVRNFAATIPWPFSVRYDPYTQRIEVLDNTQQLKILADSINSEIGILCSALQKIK
# Assay: Cell Based Phenylalanine Flux Assay
# Condition context: A375 cells expressing human R408W PAH; 24 hrs compound incubation; 13C-Tyrosine by LC-MS; average where tested multiple times; read-out: AC50
I'd appreciate it if you could supply AC50 values for the items below.

Here is how some compounds turned out for AC50.
1) O=C(c1cnn2cc(N3CCCC3)ccc12)N1CCc2[nH]cnc2[C@H]1c1cc2ccccc2cn1; < 0.5 µM
2) CN(C)c1ccc2c(C(=O)N3CCc4[nH]cnc4[C@H]3c3cc4ccccc4cn3)cnn2c1; < 0.5 µM
3) C[C@@H]1CN(C(=O)c2cnc(C(C)(C)O)o2)[C@H](c2cc3ccccc3cn2)c2nc[nH]c21; 1 to 5 µM
4) CC(C)(F)c1nnc(C(=O)N2CCc3[nH]cnc3[C@H]2c2cc3ccccc3nn2)o1; 0.5 to 1 µM
5) O=C(c1nnc(-c2ccc(OC(F)(F)F)cn2)o1)N1CCc2[nH]cnc2[C@H]1c1ncc2ccccc2n1; < 0.5 µM

Give AC50 for each of the items listed below.
1. Cn1nc(Cl)nc1C(=O)N1CCc2[nH]cnc2C1c1ccc2ccccc2n1 (stereo in doubt)
2. C[C@H]1CN(C(=O)c2nnc(C(C)(C)F)o2)[C@H](c2cc3ccccc3cn2)c2nc[nH]c21

A)
1. 0.5 to 1 µM
2. 0.5 to 1 µM

Could I get AC50 for every one of these entries?
1. CC(F)(F)c1ncc(C(=O)N2CCc3[nH]cnc3[C@H]2c2cn3ccccc3n2)s1 (single isomer, unassigned)
2. CC(C)(F)c1ncc(C(=O)N2CCc3[nH]cnc3[C@@H]2c2cn3ccccc3n2)s1
3. O=C(c1nnc(-c2ccc(F)cc2F)o1)N1CCc2[nH]cnc2C1c1ccc2ccccc2n1 (stereo in doubt) [Example 76]
4. O=C(c1nnc(NC2CC2)o1)N1CCc2[nH]cnc2[C@H]1c1cc2ccccc2cn1

A)
1. 1 to 5 µM
2. > 5 µM
3. > 5 µM
4. 0.5 to 1 µM

Hi, could you look up AC50 for each item in my list?
1. Cc1nc(-c2ccccn2)oc1C(=O)N1C[C@H](C)c2[nH]cnc2[C@@H]1c1cc2ccccc2cn1
2. Fc1ccc(-c2nnc(N3CCc4[nH]cnc4C3c3ccc4ccccc4n3)o2)cc1 (stereo in doubt) [Example 19]
3. Cn1cc(-c2ccc3c(C(=O)N4CCc5[nH]cnc5[C@H]4c4cc5ccccc5cn4)cnn3c2)cn1

A)
["> 5 µM", "> 5 µM", "< 0.5 µM"]

Q) Given the compound O=C(c1cnc(-c2ccccn2)s1)N1CCc2[nH]cnc2[C@@H]1c1cc2ccccc2cn1 , write its reported AC50.
A) > 5 µM

----------
# Target of assay: human PAH with the R408W mutation (Homo sapiens, UniProt P00439, R408W)
# Construct: expressed in transfected cells
# Assay: Cell Based Phenylalanine Flux Assay
# Condition context: A375 cells expressing human R408W PAH; 24 hrs compound incubation; 13C-Tyrosine by LC-MS; average where tested multiple times; read-out: AC50
Property: AC50

Recorded AC50, per entry:
1) Cn1nc(C(=O)N2CCc3[nH]cnc3[C@H]2c2cc3ccccc3cn2)c2ccccc21; < 500 nM
2) O=C(c1cnn2cccc(F)c12)N1CCc2[nH]cnc2[C@H]1c1cc2ccccc2cn1; < 500 nM
3) O=C(Cc1nncs1)N1CCc2[nH]cnc2[C@H]1c1cc2ccccc2cn1; < 500 nM
4) C[C@H]1CN(C(=O)c2oc(-c3ccccn3)nc2C2CC2)[C@@H](c2cc3ccccc3cn2)c2nc[nH]c21; 500 to 1000 nM

Batch: AC50 for all items listed.
1. O=C(c1cnc(C2(F)CCC2)s1)N1CCc2[nH]cnc2[C@H]1c1cn2ccccc2n1
2. Cn1cncc1-c1nc(C(F)F)c(C(=O)N2CCc3[nH]cnc3[C@@H]2c2ncc3ccccc3n2)o1
3. O=C(c1cnn2cc(N3CCOCC3)c(Cl)cc12)N1CCc2[nH]cnc2[C@H]1c1cc2ccccc2cn1
4. O=C(c1nnc(-c2ccc(F)cn2)o1)N1CCc2[nH]cnc2[C@H]1c1cc2ccccc2cn1
5. Cc1nc(-c2ccccn2)oc1C(=O)N1CCc2[nH]cnc2C1c1ccc2ccccc2n1 (stereo in doubt) [Example 32]
6. CC(O)c1nc(Cl)c(C(=O)N2CCc3[nH]cnc3[C@H]2c2ccc3ccccc3n2)o1 (single isomer, unassigned) [Example 137]
7. O=C(c1nnc(C2CC2)o1)N1CCc2[nH]cnc2[C@H]1c1cc2ccccc2cn1

A)
1. 1000 to 5000 nM
2. 500 to 1000 nM
3. < 500 nM
4. < 500 nM
5. > 5000 nM
6. < 500 nM
7. < 500 nM

// each listed compound needs a value for AC50
1. Cc1nn(C)cc1-c1nnc(C(=O)N2CCc3[nH]cnc3[C@H]2c2ncc3ccccc3n2)o1
2. O=C(c1nnc(-c2cnn(C(F)F)c2)o1)N1CCc2[nH]cnc2[C@H]1c1ncc2ccccc2n1
3. O=C(c1ocnc1C(F)(F)F)N1CCc2[nH]cnc2C1c1ccc2ccccc2n1 (stereo in doubt) [Example 38]
4. C[C@H]1CN(C(=O)c2cnc(C(C)(C)O)o2)[C@H](c2cc3ccccc3cn2)c2nc[nH]c21

A)
["< 500 nM", "< 500 nM", "1000 to 5000 nM", "500 to 1000 nM"]
